Test system: Lysosomal alpha-glucosidase (Homo sapiens, UniProt P10253)
Procedure details: Inhibition of recombinant human GAA by UV-visible spectrophotometric method
Measurement label: pIC50
// pIC50 here means minus log10 of the molar concentration (mol/L)

Look up pIC50: CCCCN1C[C@H](O)[C@@H](O)[C@H](O)[C@H]1CO
3.80

----------
Procedure details: Inhibition of rice alpha-glucosidase using 4-Np-alpha-Glc as substrate by UV-visible spectrophotometric method
Design: species or system Oryza sativa
Measurement label: pIC50
// pIC50 here means minus log10 of the molar concentration (mol/L)

Look up pIC50: CCCCN1C[C@H](O)[C@@H](O)[C@H](O)[C@H]1CO
3.56
